- TARGET UNDER TEST: human neurokinin-3 receptors expressed in CHO cell lines (Homo sapiens, UniProt P29371)
- Sequence (P29371 whole entry): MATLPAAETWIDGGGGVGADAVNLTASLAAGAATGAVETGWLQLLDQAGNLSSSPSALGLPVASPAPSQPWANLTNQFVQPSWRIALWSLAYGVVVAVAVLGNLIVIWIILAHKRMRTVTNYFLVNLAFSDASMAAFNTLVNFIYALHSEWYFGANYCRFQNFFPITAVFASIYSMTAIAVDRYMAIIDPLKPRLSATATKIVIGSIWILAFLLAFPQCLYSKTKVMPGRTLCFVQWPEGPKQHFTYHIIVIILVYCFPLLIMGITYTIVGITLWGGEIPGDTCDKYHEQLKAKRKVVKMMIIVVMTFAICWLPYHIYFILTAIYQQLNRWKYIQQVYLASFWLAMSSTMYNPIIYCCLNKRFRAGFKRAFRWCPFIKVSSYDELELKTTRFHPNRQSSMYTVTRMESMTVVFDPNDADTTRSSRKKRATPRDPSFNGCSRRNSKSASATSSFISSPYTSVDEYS
- PROCEDURE SUMMARY: Binding affinity in hNK-3-CHO
- DETAILS: human NK-3 receptors in CHO cell lines; radioligand [125I]-[Me-Phe7]-NKB
Counter-ions that a name gives are not always drawn.
VALUE KIND: IC50 (nM)

• CC[C@H](NC(=O)c1c(OCCO)c(-c2ccccc2)nc2ccccc12)c1ccccc1 = 1.6
• CC[C@H](NC(=O)c1c(OCCCN2CCN(c3ccccc3)CC2)c(-c2ccccc2)nc2ccccc12)c1ccccc1 = 0.7
• CC[C@H](NC(=O)c1c(OCCN2C(=O)[C@@H](c3ccccc3)NC2(C)C)c(-c2ccccc2)nc2ccccc12)c1ccccc1 = 0.9
• CC[C@H](NC(=O)c1c(OCCN2Cc3ccccc3C2)c(-c2ccccc2)nc2ccccc12)c1ccccc1.Cl.Cl [Example 5, Dihydrochloride] = 1.2
• CC[C@H](NC(=O)c1c(OCCCN2CCN(c3cccc(Cl)c3)CC2)c(-c2ccccc2)nc2ccccc12)c1ccccc1 = 0.8

(a) CC[C@H](NC(=O)c1c(OCCCN2C(=O)c3nccnc3C2=O)c(-c2ccccc2)nc2ccccc12)c1ccccc1
(b) CC[C@H](NC(=O)c1c(OCCCN2CCN(c3ncccn3)CC2)c(-c2ccccc2)nc2ccccc12)c1ccccc1
[Q] Thinking about recorded IC50 values, which is higher, a or b ? Mark your selection by writing its label.
[A] a
(a: 2.7 nM, b: 1.1 nM)

(1) CC[C@H](NC(=O)c1c(OCCN2CCc3ccccc3C2=O)c(-c2ccccc2)nc2ccccc12)c1ccccc1
(2) CC[C@H](NC(=O)c1c(OCCCN2CCN(C)CC2)c(-c2ccccc2)nc2ccccc12)c1ccccc1
[Q] Thinking about recorded IC50 values, which is higher, 1 or 2 ? Mark your selection by writing its label.
[A] 2
(2: 3.3 nM, 1: 1.3 nM)

(a) CC[C@H](NC(=O)c1c(OCCCN)c(-c2ccccc2)nc2ccccc12)c1ccccc1 [Example 11, Hydrochloride]
(b) CC[C@H](NC(=O)c1c(OCCN2Cc3ccccc3CC2=O)c(-c2ccccc2)nc2ccccc12)c1ccccc1
[Q] Thinking about recorded IC50 values, which is higher, a or b ? Mark your selection by writing its label.
[A] a

###

Where a name gives a salt, the structure may show the parent alone.
VALUE KIND: melting point

[Q] Suppose we examine the compound `CC[C@H](NC(=O)c1c(OCCN2CCc3ccccc3C2=O)c(-c2ccccc2)nc2ccccc12)c1ccccc1` ; what melting point value has been reported?
[A] 71 °C (dec.)

[Q] What do you get for `CC[C@H](NC(=O)c1c(OCCCN2C(=O)c3nccnc3C2=O)c(-c2ccccc2)nc2ccccc12)c1ccccc1` ?
[A] 100 to 105 °C

[Q] What do you get for `CC[C@H](NC(=O)c1c(OCCN2C(=O)C=CC2=O)c(-c2ccccc2)nc2ccccc12)c1ccccc1` ?
[A] 74 to 78 °C

[Q] What do you get for `CC[C@H](NC(=O)c1c(OCCN2Cc3ccccc3CC2=O)c(-c2ccccc2)nc2ccccc12)c1ccccc1` ?
[A] 153 to 156 °C

[Q] What do you get for CC[C@H](NC(=O)c1c(OCCCN2CCN(C)CC2)c(-c2ccccc2)nc2ccccc12)c1ccccc1 (as salt: HCl) ?
[A] 160 to 170 °C

###

Structures can show the parent of a compound that is named as a salt.
Reported melting point values for the following compounds.

Below: 3 compounds and their reported melting point.
• CC[C@H](NC(=O)c1c(CN2CCN(c3ccccc3)CC2)c(-c2ccccc2)nc2ccccc12)c1ccccc1 [Example 30] = 142 to 145 °C
• CC[C@H](NC(=O)c1c(OCCCN2CCN(c3ncccn3)CC2)c(-c2ccccc2)nc2ccccc12)c1ccccc1 (as salt: HCl) [Example 40] = 140 °C (dec.)
• CC[C@H](NC(=O)c1c(OCCCN2CCN(c3ccccc3)CC2)c(-c2ccccc2)nc2ccccc12)c1ccccc1 (as salt: HCl) [Example 33] = 86 °C (dec.)

Pending compound:
[Q] Suppose we examine the compound CC[C@H](NC(=O)c1c(OCCN2C(=O)CCC2=O)c(-c2ccccc2)nc2ccccc12)c1ccccc1 [Example 15] ; what melting point value has been reported?
[A] 80 °C (dec.)

###

Reported melting point values for the following molecules.

- CC[C@H](NC(=O)c1c(OCCN2C(=O)CNC2(C)C)c(-c2ccccc2)nc2ccccc12)c1ccccc1: 160 to 162 °C
- CC[C@H](NC(=O)c1c(OCCN2C(=O)[C@@H](c3ccccc3)NC2(C)C)c(-c2ccccc2)nc2ccccc12)c1ccccc1: 147 to 150 °C
- CC[C@H](NC(=O)c1c(OCCCN2CCN(c3ccccc3OC)CC2)c(-c2ccccc2)nc2ccccc12)c1ccccc1.Cl.Cl: 151 to 155 °C
- CC[C@H](NC(=O)c1c(OCCN2Cc3ccccc3C2)c(-c2ccccc2)nc2ccccc12)c1ccccc1.Cl.Cl: 95 °C (dec.)
- CC[C@H](NC(=O)c1c(OCCCN2C(=O)c3ccccc3C2=O)c(-c2ccccc2)nc2ccccc12)c1ccccc1: 125 to 128 °C

[Q] Suppose we examine the molecule `CC[C@H](NC(=O)c1c(OCCCN2CCN(c3cccc(Cl)c3)CC2)c(-c2ccccc2)nc2ccccc12)c1ccccc1` ; what melting point value has been reported?
[A] 115 to 135 °C

[Q] What do you get for `CC[C@H](NC(=O)c1c(OCCN2C(=O)Cc3ccccc3C2=O)c(-c2ccccc2)nc2ccccc12)c1ccccc1` ?
[A] 159 to 161 °C

###

- TARGET UNDER TEST: human neurokinin-3 receptors expressed in CHO cell lines (Homo sapiens, UniProt P29371)
- PROCEDURE SUMMARY: Binding affinity in hNK-3-CHO
- DETAILS: human NK-3 receptors in CHO cell lines; radioligand [125I]-[Me-Phe7]-NKB
VALUE KIND: IC50 (nM)

Below: 2 compounds and their reported IC50.
• CC[C@H](NC(=O)c1c(OCCN2C(=O)CNC2(C)C)c(-c2ccccc2)nc2ccccc12)c1ccccc1 = 3.4
• CC[C@H](NC(=O)c1c(CN2CCN(c3ccccc3)CC2)c(-c2ccccc2)nc2ccccc12)c1ccccc1 = 1.1

(I) CC[C@H](NC(=O)c1c(OCCCN2C(=O)c3ccccc3C2=O)c(-c2ccccc2)nc2ccccc12)c1ccccc1
(II) CC[C@H](NC(=O)c1c(OCCCN2CCN(c3ccccc3OC)CC2)c(-c2ccccc2)nc2ccccc12)c1ccccc1.Cl.Cl [Example 18, Dihydrochloride]
(III) CC[C@H](NC(=O)c1c(OCCN2C(=O)Cc3ccccc3C2=O)c(-c2ccccc2)nc2ccccc12)c1ccccc1
[Q] Returns the items ordered by IC50, from maximum to minimum. Put the labels in the order asked and list them.
[A] I, III, II
(I: 3.2 nM, III: 0.8 nM, II: 0.4 nM)
